- targetOrSystem: T1, activated factor XII (FXIIa) (UniProt P00748 20-372; P00748 373-615)
- T1 sequence (looked up) 1: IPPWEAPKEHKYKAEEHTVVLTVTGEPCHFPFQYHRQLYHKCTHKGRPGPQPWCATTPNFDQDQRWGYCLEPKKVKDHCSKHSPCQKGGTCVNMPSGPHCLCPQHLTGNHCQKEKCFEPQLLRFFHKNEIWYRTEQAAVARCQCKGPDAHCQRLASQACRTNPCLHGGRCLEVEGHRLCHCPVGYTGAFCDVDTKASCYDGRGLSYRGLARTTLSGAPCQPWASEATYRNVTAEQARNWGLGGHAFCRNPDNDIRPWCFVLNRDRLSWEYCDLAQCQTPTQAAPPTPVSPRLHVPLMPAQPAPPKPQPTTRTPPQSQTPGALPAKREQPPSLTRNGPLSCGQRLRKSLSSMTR
- T1 sequence (looked up) 2: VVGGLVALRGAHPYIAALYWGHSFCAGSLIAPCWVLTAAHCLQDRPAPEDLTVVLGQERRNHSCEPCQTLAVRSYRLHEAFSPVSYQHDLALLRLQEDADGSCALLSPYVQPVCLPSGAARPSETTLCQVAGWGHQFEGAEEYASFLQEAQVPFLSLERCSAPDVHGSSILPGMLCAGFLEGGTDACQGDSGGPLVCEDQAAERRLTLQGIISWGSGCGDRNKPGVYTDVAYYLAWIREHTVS
- testName: chromogenic enzyme inhibition assay
pKi: −log10 of the molar value.
assayEndpoint: pKi

In [3]: df
Out[3]:
                                     binder  recordednumber
0  LSEEPE [oligopeptide LE6 (Leu-Ser-Glu-Glu-Pro-Glu)]            5.20
